# Tested on: Mus musculus
# TEST_DETAILS: Drug elimination constant in SCID mouse at 50 mg/kg, sc
# Type: ADME, organism-based
# Design: dose 50 mg/kg, route subcutaneous
# APPLIED_CONDITIONS: in vivo
ENDPOINT: Kel (h⁻¹)
Give bare numbers, in h⁻¹.

C[C@]12CC[C@H](O)CC1=CC[C@@H]1[C@@H]2CC[C@]2(C)C(n3cnc4ccccc43)=CC[C@@H]12 has a reported Kel of 0.942

###

# TARGET_DESC: Steroid 17-alpha-hydroxylase/17,20 lyase (Homo sapiens)
# Sequence (P05093 whole entry): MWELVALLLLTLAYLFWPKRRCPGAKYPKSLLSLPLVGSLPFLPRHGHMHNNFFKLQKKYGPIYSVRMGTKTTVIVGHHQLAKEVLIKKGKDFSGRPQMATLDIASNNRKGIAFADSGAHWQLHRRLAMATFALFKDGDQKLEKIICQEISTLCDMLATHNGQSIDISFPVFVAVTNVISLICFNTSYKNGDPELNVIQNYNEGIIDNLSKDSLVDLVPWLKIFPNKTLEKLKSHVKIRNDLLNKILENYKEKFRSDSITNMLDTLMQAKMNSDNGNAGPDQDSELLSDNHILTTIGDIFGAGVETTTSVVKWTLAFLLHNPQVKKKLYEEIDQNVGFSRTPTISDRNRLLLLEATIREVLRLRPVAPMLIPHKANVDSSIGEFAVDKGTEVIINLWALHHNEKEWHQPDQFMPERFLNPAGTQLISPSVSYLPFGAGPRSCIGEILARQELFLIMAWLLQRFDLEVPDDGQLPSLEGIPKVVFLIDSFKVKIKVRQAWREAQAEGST
# TEST_DETAILS: Inhibition of human CYP17 expressed in Escherichia coli
ENDPOINT: pIC50
Give bare numbers, as −log10 of the molar value.

Lab note: C[C@]12CC[C@H](O)CC1=CC[C@@H]1[C@@H]2CC[C@]2(C)C(n3ccnc3)=CC[C@@H]12 gave pIC50 of 7.30
